Biological target: T1, human glucose-dependent insulinotropic peptide (gastric inhibitory polypeptide) receptor (human) (UniProt P48546)
T1 sequence (looked up): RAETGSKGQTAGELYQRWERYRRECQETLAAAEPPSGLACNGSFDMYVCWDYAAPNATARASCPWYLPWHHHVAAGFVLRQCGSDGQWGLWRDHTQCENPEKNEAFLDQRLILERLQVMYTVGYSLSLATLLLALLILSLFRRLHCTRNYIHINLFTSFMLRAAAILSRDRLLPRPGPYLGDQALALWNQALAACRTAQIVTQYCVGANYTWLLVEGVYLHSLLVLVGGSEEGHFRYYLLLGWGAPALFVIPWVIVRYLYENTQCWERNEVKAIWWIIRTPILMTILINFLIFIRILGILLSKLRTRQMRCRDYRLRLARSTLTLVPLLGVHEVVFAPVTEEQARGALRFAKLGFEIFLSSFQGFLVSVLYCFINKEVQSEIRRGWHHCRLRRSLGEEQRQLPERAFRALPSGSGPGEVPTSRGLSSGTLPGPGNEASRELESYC
Experiment: cell-based or functional assay
Numbered stars: 1 amine (or outer) side, 2 acyl side, 3 side chain; on linkers, the order of the positions; unused ones are H or OH. Side chains are listed from the residue outwards. Ends that are not written are not given here. * marks the point of attachment. γGlu = O=C(O)[C@H](CCC(=O)[*:2])N[*:1]; Palmitoyl = CCCCCCCCCCCCCCCC(=O)*; Ahx = NCCCCCC(=O)O
Assay endpoint: cAMP EC50 (assay 1) (nM)
Use nM as the unit, but write only the number.

Item under review: HSQGTFTSDYSKYLDSRRAQDFVQWLVAGGGGGG-NH2 [g315] . Reported cAMP EC50 (assay 1)?
19.7

Param item: HXQGTFTSDYSKYLDSKRAQDFVQWLVAGG (Aib at 2 (written X); K(gE-palm) at 17; C-terminal amide) [g384]
17

Param item: HSQGTFTSDYSEYLDSK([γGlu-Palmitoyl])RARDFVAWLERGG-NH2 (not fully specified) [g772]
1540

Param item: HSQGTFTSDYSKYLDSRRAQDFVQWLVAGGKNNRNNIAK-NH2 [g321]
6.41

Param item: HSQGTFTSDYSEYLDSK([Ahx-Palmitoyl])RARDFVEWLENT-NH2 (not fully specified) [g825]
86.7

Param item: HSQGTFTSDYSKYLDSERARDFVAWLEAGG-NH2 [g840]
102
